- Tested on: P. Aeruginosa A5007
- assay_comment: Acute mouse protection test
- Assay type: in vivo
- experimental_setup: mice infected i.p. with P. Aeruginosa A5007; oral dosing at 1 and 5 hours post-infection; observed 7 days
Structures can show the parent of a compound that is named as a salt.

| molecule | target | Oral (ED50) [mg/kg/day] |
| --- | --- | --- |
| O=C(O)c1cn(-c2ccc(F)cc2F)c2nc(N3CCC(NC(=O)C4CCCN4)C3)c(F)cc2c1=O (centres unmarked) [Example 28] | P. Aeruginosa A5007 | 51.3 |
| CCC[C@H](N)C(=O)NC1CCN(c2nc3c(cc2F)c(=O)c(C(=O)O)cn3CC)C1 (some centres unmarked) [Example 26ff] | P. Aeruginosa A5007 | 30.5 |
| CC(C)CC(N)C(=O)NC1CCN(c2nc3c(cc2F)c(=O)c(C(=O)O)cn3C2CC2)C1 (centres unmarked) [Example 26o] | P. Aeruginosa A5007 | 6.2 |
| NC(Cc1ccc(O)cc1)C(=O)NC1CCN(c2nc3c(cc2F)c(=O)c(C(=O)O)cn3-c2ccc(F)cc2F)C1 (centres unmarked) [Example 13] | P. Aeruginosa A5007 | 15.1 |
| NCC(=O)N[C@@H](Cc1ccccc1)C(=O)NC1CCN(c2nc3c(cc2F)c(=O)c(C(=O)O)cn3-c2ccc(F)cc2F)C1 (some centres unmarked) [Example 1b, hydrochloride] | P. Aeruginosa A5007 | 27.3 |
| CCCC(N)C(=O)NC1CCN(c2c(F)cc3c(=O)c(C(=O)O)cn(C4CC4)c3c2F)C1 (centres unmarked) [Example 26r] | P. Aeruginosa A5007 | 7.3 |
| CS(=O)(=O)CC[C@H](N)C(=O)NC1CCN(c2nc3c(cc2F)c(=O)c(C(=O)O)cn3-c2ccc(F)cc2F)C1 (some centres unmarked) [Example 31c, Hydrochloride] | P. Aeruginosa A5007 | 7.8 |
| CCCC(N)C(=O)NC1CCN(c2cc3c(cc2F)c(=O)c(C(=O)O)cn3-c2ccc(F)cc2)C1 (centres unmarked) [Example 26h] | P. Aeruginosa A5007 | 101.3 |
